target: P. falciparum apicoplast DNA polymerase (Pf-apPOL) (Plasmodium falciparum); assay: Fluorescence-based high-throughput DNA polymerase assay (molecular beacon), primary screen and dose-response; assay type: biochemical; settings: conc. 40; 180'; DRC-2
Label class 1 when % inhibition apPOL 180' >= 70%; otherwise class 0.

O=C(NCC1CCN(C2CCCC2)CC1)C(=O)NC1CCCC1 [KU0199596] | class 0
COCC(=O)Nc1c(-c2cccc(F)c2)nc2cc(C)ccn12 [Molecule 44, COCC(=O)Nc1c(nc2n1ccc(c2)C)c1cccc(c1)F] | class 1
O=C(CSc1nnc(-c2ccncc2)[nH]1)c1ccc(O)c(O)c1 [Molecule 89] | class 1

Given CC(=O)Nc1cc(C(=O)NC(C)C)c2ccc(C)nc2c1 [KU0206312] , state whether its % inhibition apPOL 180' is at least 70%.
class 0

Check if % inhibition apPOL 180' >= 70% (inclusive). Item: O=C(O)c1cccc(N2N=C(C(F)(F)F)/C(=C/c3ccc(-c4ccccc4[N+](=O)[O-])o3)C2=O)c1 [Molecule 100]
class 1

---

molecular target: P. falciparum apicoplast DNA polymerase (Pf-apPOL) (Plasmodium falciparum, UniProt Q8ILY1); test: Fluorescence-based high-throughput DNA polymerase assay (molecular beacon), primary screen and dose-response; type: biochemical; settings: 'DNA Pol' of the 186 hits list (primary screen value); 90 min, 10 µM
Sequence (Q8ILY1 entry or part of it): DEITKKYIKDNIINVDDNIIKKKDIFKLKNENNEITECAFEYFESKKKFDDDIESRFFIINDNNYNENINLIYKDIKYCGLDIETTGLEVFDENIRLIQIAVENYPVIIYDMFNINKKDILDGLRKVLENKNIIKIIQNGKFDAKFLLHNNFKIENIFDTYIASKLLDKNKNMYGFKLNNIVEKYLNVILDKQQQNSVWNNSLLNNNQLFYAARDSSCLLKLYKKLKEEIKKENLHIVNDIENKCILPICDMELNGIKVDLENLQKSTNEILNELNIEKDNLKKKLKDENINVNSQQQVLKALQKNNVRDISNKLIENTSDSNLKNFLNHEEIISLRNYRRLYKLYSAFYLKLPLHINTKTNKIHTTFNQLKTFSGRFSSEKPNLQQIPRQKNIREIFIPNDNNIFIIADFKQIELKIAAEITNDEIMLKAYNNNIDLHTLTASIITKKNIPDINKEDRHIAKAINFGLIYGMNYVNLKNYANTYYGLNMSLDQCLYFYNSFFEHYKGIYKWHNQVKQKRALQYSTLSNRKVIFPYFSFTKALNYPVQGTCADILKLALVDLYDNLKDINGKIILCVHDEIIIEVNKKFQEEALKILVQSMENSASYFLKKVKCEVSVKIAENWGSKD
Task for the reader: assign each of the following compounds its reported DNA Pol.
Answers are plain numbers.

# count of solved cases: 2
O=C1N=C(Nc2cccc(Cl)c2Cl)S/C1=C\c1ccco1 [Molecule 3, O=C1N=C(S/C/1=C\c1ccco1)Nc1cccc(c1Cl)Cl] | 74
Cc1ccccc1C(=O)N1CCc2c(nc3cc(-c4ccccc4)[nH]n3c2=O)C1 | 47

// batch mode: one DNA Pol value per listed entry
1. CCC(C)NC(=O)c1cc(NC(C)=O)cc2nc(C)ccc12 (stereo not drawn)
2. O=C(NC(C(Cl)Cl)S(=O)(=O)c1ccccc1)c1ccccc1 (stereo not drawn)
3. Cc1nc(/N=N/c2ccc(C(=O)[O-])cc2)c(COP(=O)([O-])[O-])c(C=O)c1O.[Na+].[Na+].[Na+]
4. CC(NC(=O)Cc1cc(=O)[nH]c(SCc2cccc(Cl)c2)n1)c1ccccc1 (stereo not drawn)
5. O=C(NNC(=O)c1ccc(Cl)cc1)C(=O)NNC(=O)c1ccc(Cl)cc1

1. 24
2. 41
3. 94
4. 46
5. 75

# return DNA Pol for each item in the list
1. O=C1c2ccccc2C(=O)N1Oc1ccc([N+](=O)[O-])c([N+](=O)[O-])c1
2. Cl.NC(CO)C(=O)NNCc1ccc(O)c(O)c1O (stereo not drawn)
3. Cc1cccc2c(C(=O)NC(C)C)cc(N(C)C)nc12

1. 72
2. 84
3. 22

// input: 2 compounds below; output: DNA Pol for each
1. COc1ccc(-c2cc3nc4c(c(=O)n3[nH]2)CCN(C(=O)CCc2ccccc2)C4)cc1
2. COc1cccc(Oc2c(C(F)(F)F)oc3cc(OC(=O)N(C)C)ccc3c2=O)c1

[52, 61]

---

target: P. falciparum apicoplast DNA polymerase (Pf-apPOL) (Plasmodium falciparum, UniProt Q8ILY1); assay: Fluorescence-based high-throughput DNA polymerase assay (molecular beacon), primary screen and dose-response; type: biochemical; conditions: DRC-2; 180'; conc 80;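 on % inhibition apPOL 180': test concentration in µM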
QUANTITY_KIND: % inhibition apPOL 180'
Dear colleague, please send the value followed by its unit.

Below: 5 compounds and their reported % inhibition apPOL 180'.
CC(C)CCNC(=O)c1cnn2c(O)cc(CSc3ccc(Cl)cc3)nc12 | 85%
N#CC(C#N)=C1SCN(c2cccc(Cl)c2)CS1 | 81%
Cc1cccc(C2=N/C(=C\c3ccc([N+](=O)[O-])o3)C(=O)O2)c1 | 78%
O=C1Nc2ccc(I)cc2C1=Cc1cc(Br)c(O)c(Br)c1 | 76%
Cc1ccccc1NC(=O)Cn1ccc2c(=O)[nH]ccc21 [Molecule 50, O=C(Cn1ccc2c1cc[nH]c2=O)Nc1ccc(cc1)C] | 78%

Hey, quick one: what's % inhibition apPOL 180' for each of these?
1. Cc1ccc(N2NC(=O)/C(=C\c3ccc(O)c([N+](=O)[O-])c3)C2=O)cc1Cl
2. C=CCOc1c(Br)cc(Br)cc1/C=C1\SC(=N)NC1=O
3. COc1ccccc1C1CC(=O)Oc2cc3c(cc21)OCO3 (centres unmarked)

1: 80%; 2: 81%; 3: 85%

---

Record form. Attribute: % inhibition apPOL 180'. Fill in for each entry.
target: UniProtKB Q8ILY1; assay: Fluorescence-based high-throughput DNA polymerase assay (molecular beacon), primary screen and dose-response; type: biochemical; conditions: DRC-1; 180'; concentration 20
Numbers only, in %.

Report % inhibition apPOL 180' for each item below.
1. CN(C)C=C1SCc2ccccc2C1=O [Molecule 77, CN(C=C1SCc2c(C1=O)cccc2)C]
2. O=C(NC(C(Cl)Cl)S(=O)(=O)c1ccccc1)c1ccccc1 (stereo not shown) [KU0045239]
3. O=C(Nc1cccc(C(=O)Nc2ccc(S(=O)(=O)[O-])c3cc(S(=O)(=O)[O-])cc(S(=O)(=O)[O-])c23)c1)Nc1cccc(C(=O)Nc2ccc(S(=O)(=O)[O-])c3cc(S(=O)(=O)[O-])cc(S(=O)(=O)[O-])c23)c1.[Na+].[Na+].[Na+].[Na+].[Na+].[Na+] [Molecule 39]
4. O=C(CSc1nc2ccccc2s1)Nc1ncc([N+](=O)[O-])s1 [KU0019667]
5. O=C(O)c1c(F)c(F)c(-c2c(F)c(F)c(C(=O)O)c(F)c2F)c(F)c1F [KU0008974]

8.887
48.9159
51.6229
57.312
22.5458

Give % inhibition apPOL 180' for each listed item.
1. CC1(C)CC(=O)C2=C(C1)OC1=C(C(=O)CC(C)(C)C1)C2c1ccc(O)cc1 [KU0194226]
2. O=c1cc(CN2CCCCC2)c2cc3c(cc2o1)OCO3 [Molecule 56, O=c1cc(CN2CCCCC2)c2c(o1)cc1c(c2)OCO1]

1. 35.7891
2. 57.3951

---

target: UniProt Q8ILY1; experiment: Fluorescence-based high-throughput DNA polymerase assay (molecular beacon), primary screen and dose-response; type: biochemical; details: DRC-2; 90'; concentration 80
Tag: TRUE if measured % inhibition ApPOL 90' is not below 70%, FALSE if it is.

COc1ccc(-c2cc(=O)c3cc(O)ccc3o2)cc1OC | FALSE
CC(=O)c1cc2c(N)c(/C(N)=N/C#N)sc2nc1C | FALSE
N#CC(=NNc1cc(C(F)(F)F)cc(C(F)(F)F)c1)C(=O)c1ccco1 | TRUE

Then there is this compound:
// inclusive: % inhibition ApPOL 90' at least 70%? input: O=c1cc(-c2ccccc2)oc2c(O)c(O)ccc12
FALSE

---

target: P. falciparum apicoplast DNA polymerase (Pf-apPOL) (Plasmodium falciparum); test: Fluorescence-based high-throughput DNA polymerase assay (molecular beacon), primary screen and dose-response; format: biochemical; conditions: DRC-2, 180', concentration 80
Would you mind telling me the reported % inhibition apPOL 180' of each entry?
Numbers only, in %.

Below, 3 compounds whose answers are already recorded.
O=C(c1c[nH]c2ncccc12)N1CCCCCC1 [Molecule 51, O=C(c1c[nH]c2c1cccn2)N1CCCCCC1] | 72
CO/N=C(\C(=O)N[C@@H]1C(=O)N2C(C(=O)[O-])=C(CSc3nc(=O)c([O-])nn3C)CSC12)c1csc(N)n1.[Na+].[Na+] (stereo partly shown) [Molecule 83] | 48
CSC(C)C(=O)C=CN(C)C (stereo not shown) [Molecule 71, CSC(C(=O)C=CN(C)C)C] | 65

What measured % inhibition apPOL 180' goes with O=C(O)c1c(F)c(F)c(-c2c(F)c(F)c(C(=O)O)c(F)c2F)c(F)c1F [KU0008974] ?
40

---

target: bacteriophage T4 DNA polymerase (Enterobacteria phage T4); construct: made in house; assay: Counter-screen against bacteriophage T4 DNA polymerase; assay type: biochemical; conditions: DRC-2; read at 90'; concentration 10
Sequence (P04415 whole entry): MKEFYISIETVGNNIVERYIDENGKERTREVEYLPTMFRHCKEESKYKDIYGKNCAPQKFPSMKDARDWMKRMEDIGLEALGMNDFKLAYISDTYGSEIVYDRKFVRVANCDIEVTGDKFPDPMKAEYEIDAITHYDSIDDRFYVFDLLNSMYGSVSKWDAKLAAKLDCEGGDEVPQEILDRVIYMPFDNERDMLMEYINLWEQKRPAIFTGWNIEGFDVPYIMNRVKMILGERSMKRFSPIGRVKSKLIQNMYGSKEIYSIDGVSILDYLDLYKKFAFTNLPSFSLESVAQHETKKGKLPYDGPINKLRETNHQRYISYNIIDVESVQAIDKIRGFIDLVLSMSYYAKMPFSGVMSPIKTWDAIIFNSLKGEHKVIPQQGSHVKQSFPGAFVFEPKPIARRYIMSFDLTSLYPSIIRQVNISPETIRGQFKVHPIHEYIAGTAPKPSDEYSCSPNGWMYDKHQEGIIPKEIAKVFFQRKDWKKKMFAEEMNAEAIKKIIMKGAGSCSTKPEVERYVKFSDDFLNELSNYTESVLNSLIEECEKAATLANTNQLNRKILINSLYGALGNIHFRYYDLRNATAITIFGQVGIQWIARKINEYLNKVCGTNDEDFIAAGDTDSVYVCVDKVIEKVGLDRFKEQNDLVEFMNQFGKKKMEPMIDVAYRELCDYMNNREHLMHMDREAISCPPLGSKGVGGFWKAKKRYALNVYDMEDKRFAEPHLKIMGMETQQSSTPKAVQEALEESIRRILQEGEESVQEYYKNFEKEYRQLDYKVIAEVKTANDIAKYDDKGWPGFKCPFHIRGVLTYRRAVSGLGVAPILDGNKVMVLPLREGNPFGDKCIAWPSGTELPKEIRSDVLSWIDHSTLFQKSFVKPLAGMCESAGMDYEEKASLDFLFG
QUANTITY_KIND: % inhibition T4 90' 10

Cc1cc2[nH]c(C(=O)Nc3ccc(F)cc3)c(CN3CCOCC3)c2s1 [Molecule 60] | 12%

Your task in this section: give % inhibition T4 90' 10 for each listed record.
1. O=C1CSC2=NC3=C(CCc4ccccc43)C(c3cccs3)N12 (stereo not drawn) [Molecule 59, O=C1CSC2=NC3=C(C(N12)c1cccs1)CCc1c3cccc1]
2. O=C(CCc1csc(NC(=O)Nc2ccccc2)n1)Nc1nc2ccccc2s1 [KU0177354]

8%
8.56%

---

molecular target: P. falciparum apicoplast DNA polymerase (Pf-apPOL) (Plasmodium falciparum, UniProt Q8ILY1); assay: Fluorescence-based high-throughput DNA polymerase assay (molecular beacon), primary screen and dose-response; assay type: biochemical; conditions: DRC-1; 90'; concentration 80
Lab note: compare % inhibition Apol 90' against 70%. Equal or greater, write yes (1). Smaller, write no (0).

Known results for molecules:
CCSc1nnc(NC(=O)Cc2csc(NC(=O)c3cnccn3)n2)s1 | no (0)
O=C1NCCCn2cc(S(=O)(=O)Nc3ccccc3)cc21 | yes (1)
O=C(O)c1cccc(N2N=C(C(F)(F)F)/C(=C/c3ccc(-c4ccccc4[N+](=O)[O-])o3)C2=O)c1 | yes (1)

Confirm if % inhibition Apol 90' reported for the molecule COc1ccc(C(=O)N2CCc3c(nc4cc(-c5ccccc5Cl)[nH]n4c3=O)C2)cn1 is 70% or above.
yes (1)

Hi team, for Cl.NC(CO)C(=O)NNCc1ccc(O)c(O)c1O (centres unmarked) , is the recorded % inhibition Apol 90' at or above 70%?
no (0)

Reported % inhibition Apol 90' at or above 70%? CN1CC(=Cc2ccco2)C(=O)C(=Cc2ccco2)C1
no (0)

Decide: is the reported value of % inhibition Apol 90' for COc1ccc(CNC(=O)Cn2nc3c(c2NC(=O)Cc2cccs2)CSC3)cc1 equal to or greater than 70%?
yes (1)

Please indicate if the recorded % inhibition Apol 90' for COc1ccc(C(=O)Nc2cccc(-c3nc4ncccc4o3)c2)cc1[N+](=O)[O-] meets or exceeds 70%.
no (0)

Answer whether % inhibition Apol 90' of CCCCOC(=O)CCCCCN1C(=O)C(=Cc2ccc(OC)cc2)SC1=S is greater than or equal to 70%.
yes (1)

Check if % inhibition Apol 90' >= 70% (inclusive). Item: CS(=O)(=O)c1cccc(C(=O)Nc2nnc(-c3ccno3)o2)c1
no (0)

Does O=c1cc(-c2ccccc2Cl)oc2c(NS(=O)(=O)c3cc(Cl)cc(Cl)c3O)ccc(O)c12 have a reported % inhibition Apol 90' of at least 70%?
yes (1)

Kindly determine if % inhibition Apol 90' recorded for O=C(O)CC1SC(c2ccc3c(c2)OCO3)=NC1=O (centres unmarked) is above or exactly 70%.
no (0)

Determine whether this molecule has % inhibition Apol 90' no lower than 70%: Cc1ccc(-n2nnc(C(=O)O)c2-c2ccccn2)c(F)c1
no (0)

Hi, just wondering whether O=C(NNC(=O)C(F)(F)Sc1ccccc1)c1ccsc1 [Molecule 68, O=C(C(Sc1ccccc1)(F)F)NNC(=O)c1cscc1] shows % inhibition Apol 90' of 70% or higher.
no (0)

Numbers sourced from paper PMC9090415.
